- tested on: angiotensin I-converting enzyme (ACE) (Oryctolagus cuniculus, UniProt P12822)
- Sequence (P12822 34-1310): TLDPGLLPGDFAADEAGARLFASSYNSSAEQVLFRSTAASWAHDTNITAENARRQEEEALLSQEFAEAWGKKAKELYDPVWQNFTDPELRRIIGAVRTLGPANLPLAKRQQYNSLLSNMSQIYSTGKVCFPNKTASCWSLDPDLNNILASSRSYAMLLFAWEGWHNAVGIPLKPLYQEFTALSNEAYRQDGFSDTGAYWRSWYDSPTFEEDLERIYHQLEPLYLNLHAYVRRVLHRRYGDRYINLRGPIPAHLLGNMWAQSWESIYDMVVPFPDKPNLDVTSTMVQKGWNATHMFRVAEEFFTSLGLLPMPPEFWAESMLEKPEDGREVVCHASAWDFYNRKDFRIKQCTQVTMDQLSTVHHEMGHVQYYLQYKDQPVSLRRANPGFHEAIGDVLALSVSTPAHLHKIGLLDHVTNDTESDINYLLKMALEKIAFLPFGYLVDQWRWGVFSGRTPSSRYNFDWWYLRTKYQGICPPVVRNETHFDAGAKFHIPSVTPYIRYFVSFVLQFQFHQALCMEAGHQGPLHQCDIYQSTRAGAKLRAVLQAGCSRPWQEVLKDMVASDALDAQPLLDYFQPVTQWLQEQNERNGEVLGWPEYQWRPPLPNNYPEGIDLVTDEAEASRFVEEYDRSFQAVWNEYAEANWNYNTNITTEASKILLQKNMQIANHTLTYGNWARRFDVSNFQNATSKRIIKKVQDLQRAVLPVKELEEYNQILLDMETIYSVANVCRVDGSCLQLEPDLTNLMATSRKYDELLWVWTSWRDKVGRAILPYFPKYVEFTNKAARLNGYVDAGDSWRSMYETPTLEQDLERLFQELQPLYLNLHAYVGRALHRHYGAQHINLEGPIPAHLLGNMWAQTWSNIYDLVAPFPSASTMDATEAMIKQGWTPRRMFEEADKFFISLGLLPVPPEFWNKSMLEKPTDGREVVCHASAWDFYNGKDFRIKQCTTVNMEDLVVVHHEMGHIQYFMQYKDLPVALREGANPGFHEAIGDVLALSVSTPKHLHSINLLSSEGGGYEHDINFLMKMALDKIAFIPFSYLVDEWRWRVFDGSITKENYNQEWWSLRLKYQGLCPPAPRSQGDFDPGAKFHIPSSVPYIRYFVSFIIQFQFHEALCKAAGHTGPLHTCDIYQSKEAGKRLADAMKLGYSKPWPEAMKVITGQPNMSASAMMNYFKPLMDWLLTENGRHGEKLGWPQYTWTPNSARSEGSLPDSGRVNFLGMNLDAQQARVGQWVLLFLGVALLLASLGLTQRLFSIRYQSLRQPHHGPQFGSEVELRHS
readout name: IC50 (nM)
State the answer as a number, implicitly in nM.

Request body: readout IC50, system angiotensin I-converting enzyme (ACE) (Oryctolagus cuniculus, UniProt P12822), query NCC(=O)N[C@H]1Cc2ccc(O)c(c2)Oc2ccc(cc2)C[C@@H](C(=O)N[C@@H](CC(=O)O)C(=O)O)NC(=O)[C@H](Cc2ccc(O)cc2)NC1=O (single isomer, unassigned) [L7Y isomer-2] . Return the value.
1100

----------
- Test system: cytochrome P450 ApyO
Where a SMILES comes first, the peptide text is derived from it. The star is where a group is joined. For = O=C*
readout name: conversion by ApyO

Illustrative cases are given below, each with its answer.
CSCC[C@H](NC=O)C(=O)N[C@@H](CCCNC(=N)N)C(=O)N[C@@H](CCSC)C(=O)NCC(=O)N[C@@H](CCC(=O)O)C(=O)NCC(=O)N[C@@H](Cc1ccc(O)cc1)C(=O)N[C@H](C(=O)N[C@@H](Cc1ccc(O)cc1)C(=O)N[C@@H](CC(=O)O)C(=O)O)C(C)C [L7V] (For-MRMGEGYVYD-OH): ~ 57%
CSCC[C@H](NC=O)C(=O)N[C@@H](CCCNC(=N)N)C(=O)N[C@@H](CCSC)C(=O)NCC(=O)N[C@@H](CCC(=O)O)C(=O)NCC(=O)N[C@@H](Cc1ccc(O)cc1)C(=O)N[C@@H](Cc1ccccc1)C(=O)N[C@@H](Cc1ccc(O)cc1)C(=O)N[C@@H](CC(=O)O)C(=O)O [L7F] (For-MRMGEGYFYD-OH): ~ 8%
CSCC[C@H](NC=O)C(=O)N[C@@H](CCCNC(=N)N)C(=O)N[C@@H](CCSC)C(=O)NCC(=O)N[C@@H](CCC(=O)O)C(=O)NCC(=O)N[C@@H](Cc1ccc(O)cc1)C(=O)N[C@H](C(=O)N[C@@H](Cc1ccc(O)cc1)C(=O)N[C@@H](CC(=O)O)C(=O)O)[C@@H](C)O [L7T] (For-MRMGEGYTYD-OH): ~ 3%
CSCC[C@H](NC=O)C(=O)N[C@@H](CCCNC(=N)N)C(=O)N[C@@H](CCSC)C(=O)NCC(=O)N[C@@H](CCC(=O)O)C(=O)NCC(=O)N[C@@H](Cc1ccc(O)cc1)C(=O)NCC(=O)N[C@@H](Cc1ccc(O)cc1)C(=O)N[C@@H](CC(=O)O)C(=O)O [L7G] (For-MRMGEGYGYD-OH): ~ 1%

Request body: readout conversion by ApyO, system cytochrome P450 ApyO, query CC[C@H](C)[C@H](NC(=O)[C@H](Cc1ccc(O)cc1)NC(=O)CNC(=O)[C@H](CCC(=O)O)NC(=O)CNC(=O)[C@H](CCSC)NC(=O)[C@H](CCCNC(=N)N)NC(=O)[C@H](CCSC)NC=O)C(=O)N[C@@H](Cc1ccc(O)cc1)C(=O)N[C@@H](CC(=O)O)C(=O)O [L7I] (For-MRMGEGYIYD-OH) . Return the value.
~ 60%

Request body: readout conversion by ApyO, system cytochrome P450 ApyO, query CSCC[C@H](NC=O)C(=O)N[C@@H](CCCCN)C(=O)N[C@@H](CCSC)C(=O)NCC(=O)N[C@@H](CCC(=O)O)C(=O)NCC(=O)N[C@@H](Cc1ccc(O)cc1)C(=O)N[C@@H](CC(C)C)C(=O)N[C@@H](Cc1ccc(O)cc1)C(=O)N[C@@H](CC(=O)O)C(=O)O [R1K] (For-MKMGEGYLYD-OH) . Return the value.
~ 8%

Request body: readout conversion by ApyO, system cytochrome P450 ApyO, query CSCC[C@H](NC=O)C(=O)N[C@@H](CCCNC(=N)N)C(=O)N[C@@H](CCSC)C(=O)NCC(=O)N[C@@H](CCC(=O)O)C(=O)NCC(=O)N[C@@H](Cc1ccc(O)cc1)C(=O)N[C@@H](Cc1c[nH]c2ccccc12)C(=O)N[C@@H](Cc1ccc(O)cc1)C(=O)N[C@@H](CC(=O)O)C(=O)O [L7W] (For-MRMGEGYWYD-OH) . Return the value.
~ 39%
